Quick list: BLOOD UREA NITROGEN per entry.
organism: Rattus norvegicus; assay: DrugMatrix - Regimen: Daily Repeat; type: toxicity, organism-based, Sprague-Dawley; parameters: regimen Daily Repeat, gender Male, age 6-8 weeks; details: in vivo, po, 0 mg/kg, 120 h, tissue Plasma, route oral GAVAGE, dose level Control, time 5 day, vehicle .5 % CMC

Below: 2 compounds and their reported BLOOD UREA NITROGEN.
CCN(CC)CCNC(=O)c1cc(Cl)c(N)cc1OC [METOCLOPRAMIDE]: 15 mg/dL
NCC(CC(=O)O)c1ccc(Cl)cc1 (stereo not drawn): 18 mg/dL

Attention now turns to another entry.
INPUT: Query (compound): `O=C1c2ccccc2C(=O)C1c1ccccc1` ; field requested: BLOOD UREA NITROGEN
OUTPUT: 14.17 mg/dL
